Protocol Notes: Toxicity in Swiss mouse assessed as death rate at 5 to 100 mg/kg, ip observed after 24 hrs
Type: organism-based
Conditions: in vivo, dose 5-100 mg/kg, read-out: Activity
Outcome Measure: mortality at 24 h (%)
Please give a number only; it is taken to be in %.

Would you mind telling me what mortality at 24 h value was observed for "NC(=O)c1n[nH]nc1[C@@H]1O[C@H](CO)[C@@H](O)[C@H]1O" ? 0

* * *

Protocol Notes: Toxicity in Swiss mouse assessed as death rate at 5 to 100 mg/kg, ip observed after 7 days
Format: organism-based
Conditions: in vivo, dose 5-100 mg/kg, time 7 day, read-out: Activity
Outcome Measure: mortality at 168 h (%)
Please give a number only; it is taken to be in %.

Would you mind telling me what mortality at 168 h value was observed for "NC(=O)c1n[nH]nc1[C@@H]1O[C@H](CO)[C@@H](O)[C@H]1O" ? 0
